A collection of molecules and their measured EC50
molecular target: Integrin alpha-M/beta-2 (Homo sapiens, UniProt P05107+P11215); assay: Agonist activity at CD11b/CD18 expressed in K562 cells assessed as increase in cell adhesion to fibrinogen; format: functional, cell-based; settings: read-out: EC50
Sequence (P05107 23-769 limits assumed, other chains not shown): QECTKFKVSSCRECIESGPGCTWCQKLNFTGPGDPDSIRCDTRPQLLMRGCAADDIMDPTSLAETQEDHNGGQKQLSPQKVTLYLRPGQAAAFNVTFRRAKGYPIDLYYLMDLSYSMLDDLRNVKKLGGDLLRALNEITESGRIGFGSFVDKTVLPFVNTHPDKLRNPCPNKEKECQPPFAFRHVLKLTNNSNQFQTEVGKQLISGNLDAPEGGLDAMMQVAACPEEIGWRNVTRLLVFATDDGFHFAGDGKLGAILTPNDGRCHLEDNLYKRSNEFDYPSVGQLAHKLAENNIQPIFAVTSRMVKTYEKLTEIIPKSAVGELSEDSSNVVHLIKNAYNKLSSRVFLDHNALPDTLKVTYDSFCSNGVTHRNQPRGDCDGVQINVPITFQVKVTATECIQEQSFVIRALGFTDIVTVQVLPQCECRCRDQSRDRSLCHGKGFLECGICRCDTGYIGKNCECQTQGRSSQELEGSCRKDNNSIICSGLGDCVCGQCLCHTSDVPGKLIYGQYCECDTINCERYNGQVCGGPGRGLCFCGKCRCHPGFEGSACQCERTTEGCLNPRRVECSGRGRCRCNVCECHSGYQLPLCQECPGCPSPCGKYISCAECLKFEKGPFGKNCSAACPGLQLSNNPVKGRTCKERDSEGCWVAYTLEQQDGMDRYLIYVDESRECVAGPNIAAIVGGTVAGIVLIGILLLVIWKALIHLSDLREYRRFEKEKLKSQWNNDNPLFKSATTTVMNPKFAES

Mol smiles | EC50
O=C1S/C(=C\c2ccc(-c3ccc(Cl)cc3Cl)o2)C(=O)N1c1ccccc1 | > 50 µM
Cc1ccc(C(=O)CN2C(=O)S/C(=C\c3ccc(-c4ccc(Cl)cc4)o3)C2=O)cc1 | > 50 µM
CCOC(=O)CN1C(=O)S/C(=C\c2ccc(-c3ccc(Cl)c(C(=O)O)c3)o2)C1=O | > 50 µM
